The reported numbers originate from patent US5106853A.

Biological target: muscarinic acetylcholine receptors
Test: NMS/OXO-M displacement: [3H]NMS and [3H]OXO-M Kapp (method of Br. J. Pharmacol. (1988), 93, 437-445)
Type: binding
Conditions: radioligand [3H]OXO-M; Kapp = corrected dissociation constant allowing for ligand occupancy; read-out: [3H]OXO-M Kapp
pKd: −log10 of the molar value.
endpoint.label: pKd

{"compound.structure.string": "C1CC1c1noc([C@H]2CN3CC[C@H]2C3)n1", "experimental.value": 8.77}
